# tested target: UniProt:Q7ZJM1
# Sequence (Q7ZJM1 whole entry): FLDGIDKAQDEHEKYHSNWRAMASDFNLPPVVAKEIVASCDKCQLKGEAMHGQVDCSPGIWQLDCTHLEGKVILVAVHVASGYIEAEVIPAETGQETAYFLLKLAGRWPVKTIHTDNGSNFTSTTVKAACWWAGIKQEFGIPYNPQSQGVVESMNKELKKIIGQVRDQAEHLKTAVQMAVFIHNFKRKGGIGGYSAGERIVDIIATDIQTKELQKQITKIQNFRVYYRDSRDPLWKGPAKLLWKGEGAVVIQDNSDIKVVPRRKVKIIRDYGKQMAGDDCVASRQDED
# assay protocol: Inhibition of HIV-1 integrase-mediated 3'-processing and strand transfer activity
So I've got a bunch of compounds here, and I need their IC50 values.
Please respond with the number in nM and leave the unit unwritten.

(Q) Form field: reported IC50 of O=c1c(O)c(-c2noc(Cc3ccc(F)cc3)n2)nc2ccc(N3CCOCC3)cn12
(A) 450

(Q) Consider next the compound O=c1c(O)c(-c2nnc(Cc3ccc(F)cc3)o2)nc2ccc(N3CCOCC3)cn12 in the same way.
(A) 310

(Q) Field entry: O=c1c(O)c(-c2ncc(Cc3ccc(F)cc3)s2)nc2ccc(N3CCOCC3)cn12
(A) 20

(Q) Queued: O=c1c(O)c(-c2ncc(Cc3ccc(F)cc3)[nH]2)nc2ccc(N3CCOCC3)cn12
(A) 45

(Q) Same question for O=c1c(O)c(-c2ncc(Cc3ccc(F)cc3)s2)nc2c(N3CCCS3(=O)=O)cc(N3CCOCC3)cn12 please.
(A) 36

(Q) What about O=C(NCc1ccc(F)cc1)c1nc2ccc(N3CCOCC3)cn2c(=O)c1O ?
(A) 775

These measurements were taken from ChEMBL document CHEMBL1255515.
